// provenance: BindingDB's records for doi:10.1016/j.bmc.2013.10.018

target: Hypoxia-inducible factor 1-alpha (Homo sapiens); assay: Inhibition of HIF-1 alpha in human OVCAR3 cells by Western blotting analysis in hypoxia condition
Sequence (Q16665 whole entry): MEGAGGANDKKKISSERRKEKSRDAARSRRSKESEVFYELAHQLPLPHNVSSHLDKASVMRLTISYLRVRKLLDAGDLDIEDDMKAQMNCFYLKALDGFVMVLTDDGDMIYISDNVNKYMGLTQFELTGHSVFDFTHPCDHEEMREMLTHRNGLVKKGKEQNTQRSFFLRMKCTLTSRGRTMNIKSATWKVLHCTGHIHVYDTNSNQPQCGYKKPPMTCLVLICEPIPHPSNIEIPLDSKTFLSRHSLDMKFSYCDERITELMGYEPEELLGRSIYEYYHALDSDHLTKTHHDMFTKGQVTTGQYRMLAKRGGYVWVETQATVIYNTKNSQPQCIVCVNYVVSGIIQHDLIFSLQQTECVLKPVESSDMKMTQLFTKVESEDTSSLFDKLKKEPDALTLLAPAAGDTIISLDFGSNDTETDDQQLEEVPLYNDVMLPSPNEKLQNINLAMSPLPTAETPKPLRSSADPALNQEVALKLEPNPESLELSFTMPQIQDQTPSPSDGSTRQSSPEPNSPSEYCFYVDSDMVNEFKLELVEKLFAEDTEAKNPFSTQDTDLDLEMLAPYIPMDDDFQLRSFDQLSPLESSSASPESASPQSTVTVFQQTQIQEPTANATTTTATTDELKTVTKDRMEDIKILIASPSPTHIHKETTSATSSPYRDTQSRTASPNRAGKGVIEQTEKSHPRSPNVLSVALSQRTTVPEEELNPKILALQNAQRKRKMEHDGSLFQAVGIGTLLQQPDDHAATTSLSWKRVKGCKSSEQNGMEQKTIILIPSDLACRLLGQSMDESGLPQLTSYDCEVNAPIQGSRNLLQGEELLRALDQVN
Test Readout: IC50

Notebook: `CN(C)CCCN1C(=O)c2ccc3c4ccc5c6c(ccc(c7ccc(c2c37)C1=O)c64)C(=O)N(CCCN(C)C)C5=O` , IC50 read as 3000 nM

---

target: Signal transducer and activator of transcription 3 (Homo sapiens, UniProt P40763); test: Inhibition of Stat3 phosphorylation in human PANC1 cells by Western blotting analysis in normoxia condition
Sequence (P40763 whole entry): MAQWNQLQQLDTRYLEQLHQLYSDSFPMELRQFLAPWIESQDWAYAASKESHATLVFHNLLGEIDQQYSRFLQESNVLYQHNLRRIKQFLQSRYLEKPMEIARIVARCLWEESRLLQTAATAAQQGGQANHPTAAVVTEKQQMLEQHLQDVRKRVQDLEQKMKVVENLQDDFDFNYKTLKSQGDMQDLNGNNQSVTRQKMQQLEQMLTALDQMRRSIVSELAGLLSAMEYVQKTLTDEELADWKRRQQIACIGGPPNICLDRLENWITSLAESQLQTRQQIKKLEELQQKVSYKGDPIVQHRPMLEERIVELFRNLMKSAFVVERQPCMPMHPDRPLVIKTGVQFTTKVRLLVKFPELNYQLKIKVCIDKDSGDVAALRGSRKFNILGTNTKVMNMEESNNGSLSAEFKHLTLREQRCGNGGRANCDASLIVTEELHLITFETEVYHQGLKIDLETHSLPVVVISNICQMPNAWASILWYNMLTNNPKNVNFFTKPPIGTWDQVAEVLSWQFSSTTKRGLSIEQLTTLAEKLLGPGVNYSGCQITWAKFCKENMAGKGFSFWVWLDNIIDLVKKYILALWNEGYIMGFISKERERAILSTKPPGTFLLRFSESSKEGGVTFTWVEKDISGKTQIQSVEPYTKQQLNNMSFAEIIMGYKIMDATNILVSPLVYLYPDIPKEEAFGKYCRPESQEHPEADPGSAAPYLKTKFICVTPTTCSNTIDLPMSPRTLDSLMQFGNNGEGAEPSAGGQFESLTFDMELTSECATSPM
Test Readout: IC50 (µM)
Quick note: give the figure in µM, leave out the unit.

I looked up `CN(C)CCCN1C(=O)c2ccc3c4ccc5c6c(ccc(c7ccc(c2c37)C1=O)c64)C(=O)N(CCCN(C)C)C5=O` and its IC50 for Signal transducer and activator of transcription 3 (Homo sapiens, UniProt P40763) was 4.5
